TEST TARGET: Human immunodeficiency virus type 1 integrase (Human immunodeficiency virus 1) (UniProt Q7ZJM1)
Sequence (Q7ZJM1 as listed by the source): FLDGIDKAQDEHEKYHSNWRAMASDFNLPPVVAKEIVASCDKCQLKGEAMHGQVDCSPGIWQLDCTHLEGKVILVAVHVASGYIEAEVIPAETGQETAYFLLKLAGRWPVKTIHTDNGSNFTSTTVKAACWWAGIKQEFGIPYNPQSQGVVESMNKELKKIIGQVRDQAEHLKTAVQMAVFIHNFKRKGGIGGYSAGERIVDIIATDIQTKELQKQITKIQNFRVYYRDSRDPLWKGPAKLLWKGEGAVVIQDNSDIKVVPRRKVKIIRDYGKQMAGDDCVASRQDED
TEST PROTOCOL: Inhibition of GST-tagged HIV1 integrase and C-terminal His6-tagged HIV1 integrase dimerization at 100 uM after 3 hrs by AlphaScreen-based dimerization assay
Active and inactive are the calls of the source. The rule behind the calls is not given here.
ATTRIBUTE MEASURED: inhibition

O=C(NCCNC(=O)c1cc2ccccc2o1)c1nc2ccccc2c(=O)[nH]1 = inactive
CC(CCc1ccccc1)NC(=O)c1ccc(NC(=O)C2COc3ccccc3O2)cc1 (stereo not given) = 14%
COc1ccc(C(=O)N/N=C(\C)CC(=O)NCc2ccccc2)cc1OC = inactive
COc1ccc(CNC(=O)C/C(C)=N/NC(=O)c2cc3ccccc3cc2O)cc1 = 50%
C[C@H](Oc1ccc2c(c1)CCC2)C(=O)NNC(=O)Nc1cccc([N+](=O)[O-])c1 = inactive
O=C(NCCNC(=O)c1cc2ccccc2cc1O)c1cc2ccccc2cc1O = inactive
Cc1ccc(C2(O)CCN(CCNC(=O)Cc3cccc(C)c3)CC2)cc1 = inactive
O=C(NCCNC(=O)c1nc2ccccc2c(=O)[nH]1)c1ccc2ccccc2n1 = inactive
O=C(N/N=C/c1ccc(Sc2ccccn2)o1)c1cc2ccccc2cc1O = 30%

Kindly review the next molecule as well.
Entry under review: `COc1ccc(OC)c2[nH]c(C(=O)NCCCC(=O)Nc3ccc4c(c3)OCCO4)cc12` . Reported inhibition?
58%

###

TEST TARGET: Human immunodeficiency virus type 1 integrase (Human immunodeficiency virus 1, UniProt Q7ZJM1)
Sequence (Q7ZJM1 whole entry): as the sequence (Q7ZJM1 as listed by the source) above
TEST PROTOCOL: Inhibition of GST-tagged HIV1 integrase and C-terminal His6-tagged HIV1 integrase dimerization after 3 hrs by AlphaScreen-based dimerization assay
ATTRIBUTE MEASURED: pIC50
# pIC50 is unitless: minus log10 of the molar concentration; print number only

COc1ccc(CNC(=O)C/C(C)=N/NC(=O)c2cc3ccccc3cc2O)cc1 = 3.89

Kindly review the next compound as well.
Entry under review: `COc1ccc(CCNC(=O)C/C(C)=N/NC(=O)c2cc3ccccc3cc2O)cc1OC` . Reported pIC50?
4.42

###

TEST TARGET: Human immunodeficiency virus type 1 integrase (Human immunodeficiency virus 1) (UniProt Q7ZJM1)
TEST PROTOCOL: Inhibition of GST-tagged HIV1 integrase and C-terminal His6-tagged HIV1 integrase dimerization at 100 uM after 3 hrs by AlphaScreen-based dimerization assay
The source made the active and inactive calls. The rule behind the calls is not given here.
ATTRIBUTE MEASURED: inhibition

Worked set:
COc1cccc2[nH]c(C(=O)NCCCC(=O)Nc3ccc4c(c3)OCCO4)cc12 = 50%
COc1ccc(CCNC(=O)C/C(C)=N/NC(=O)c2cc3ccccc3cc2O)cc1OC = 83%
CCc1ccc(O)c(NC(=S)NC(=O)COc2cc(C)c(Cl)c(C)c2)c1 = 23%
COc1ccc(/C=C/C(=O)Nc2ncc(Cc3cccc(C)c3)s2)cc1 = inactive
C/C(CC(=O)Nc1ccc(Cl)c(Cl)c1)=N\NC(=O)c1cc2ccccc2cc1O = inactive

Entry under review: `COc1cccc(-c2nc(C)c(C(=O)Nc3cc(C)ccc3O)s2)c1` . Reported inhibition?
32%

Entry under review: `Cc1cc(C)cc(OCC(=O)NNC(=O)c2ccc3ccccc3c2O)c1` . Reported inhibition?
inactive

Entry under review: `Cc1ccc(C(=O)CCC(=O)Nc2nc3c(s2)CCc2c-3cnn2C)cc1C` . Reported inhibition?
13%

Entry under review: `CCn1c2ccccc2c2cc(NC(=O)/C=C(\C)NNC(=O)Cc3cccc4ccccc34)ccc21` . Reported inhibition?
inactive

Entry under review: `O=C(N/N=C/c1ccc(-c2ccc(Cl)cc2Cl)o1)c1cc2ccccc2cc1O` . Reported inhibition?
49%

Entry under review: `C/C(CC(=O)Nc1ccc(OCc2ccccc2)cc1)=N\NC(=O)c1cc2ccccc2cc1O` . Reported inhibition?
54%

Entry under review: `O=C(Nc1cccc(-c2cnc3ccccc3n2)c1)c1cc2ccccc2cc1O` . Reported inhibition?
inactive

Entry under review: `COc1cccc2[nH]c(C(=O)NCCC(=O)Nc3nc4ccccc4s3)cc12` . Reported inhibition?
inactive

Entry under review: `COc1ccc(OC)c2[nH]c(C(=O)NCCC(=O)NCCc3c[nH]c4ccccc34)cc12` . Reported inhibition?
73%

Entry under review: `O=C(CNc1ccc2ccccc2c1)N/N=C/c1ccc(-c2ccc(Cl)cc2)o1` . Reported inhibition?
49%

Source listed as ChEMBL document CHEMBL2016475.
